assay: Patient with severe psoriasis taking Ortho-Novum treated with tazarotene; type: in vivo, human; settings: female, human, in vivo; tazarotene 6 mg per day, mean ±SD; read-out: AUC0-24 for tazarotenic acid
observable: AUC(0-t) (ng·h/mL)
Write the number in ng·h/mL without appending the unit.

Qu. Consider the compound CC1(C)CCSc2ccc(C#Cc3ccc(C(=O)O)cn3)cc21 and give its measured AUC(0-t).
Ans. 379

All figures here come from patent US20050026950A1.
